// reported pIC50 for each item listed
Target: CDK2/Cyclin E1 (Homo sapiens, UniProt P24941)
Construct: purchased 14-475
Test: Caliper Assay (LabChip EZ Reader mobility shift assay), inhibition of CDK2/Cyclin E1 activity
Type: biochemical
Settings: 2.5 nM CDK2/Cyclin E1(14-475), 100 μM ATP, 30 min preincubation; read-out: Caliper Assay (CDK2/CCNE1): IC50
pIC50: −log10 of the molar value.

Worked cases, pIC50 given:
CC1(C)C[C@@H]1C(=O)N1CC2(CN(C(=O)c3cnn(Cc4ccccc4)c3)CC2c2nnc(Nc3ccc(Br)cc3)o2)C1 (some centres unmarked) [I-5] ... 5.00 to 6.00
O=C(c1cncs1)N1CC(c2nc3ccc(Oc4ccccc4)cc3o2)C2(C1)CN(C(=O)[C@H]1CC1(F)F)C2 (some centres unmarked) [I-144] ... 5.00 to 6.00
COc1ccc(C(F)(F)c2nnc(C3CN(C(=O)c4cncs4)CC34CN(C(=O)[C@H]3CC3(C)C)C4)o2)cc1 (some centres unmarked) [I-68] ... 6.00 to 7.00
CC(C)(c1cccc(C2CCOCC2)n1)c1nnc(C2CN(C(=O)c3cncs3)CC23CN(C(=O)[C@H]2CC2(C)C)C3)o1 (some centres unmarked) [I-102] ... 7.00 to 8.00
CC(c1nc(C2CN(C(=O)c3cncs3)CC23CN(C(=O)[C@H]2CC2(C)C)C3)no1)n1ccc(C2CCCC2)n1 (single isomer, unassigned) [I-36 4th] ... 7.00 to 8.00

**Query** Report measured pIC50 on CDK2/Cyclin E1 (Homo sapiens, UniProt P24941); entry: CC1(C)C[C@@H]1C(=O)N1CC2(CN(C(=O)c3cnco3)CC2c2nnc(C(F)(F)c3ccc(Cl)c(Cl)c3)o2)C1 (some centres unmarked) [I-44]
**Result** 5.00 to 6.00

**Query** Report measured pIC50 on CDK2/Cyclin E1 (Homo sapiens, UniProt P24941); entry: O=C(C1CCOCC1)N1CC(c2nnc(C(F)(F)c3ccc(Cl)c(Cl)c3)o2)C2(C1)CN(C(=O)[C@H]1CC1(F)F)C2 (some centres unmarked) [I-158]
**Result** < 5.00

**Query** Report measured pIC50 on CDK2/Cyclin E1 (Homo sapiens, UniProt P24941); entry: CC(c1nc(C2CN(C(=O)c3nccnc3O)CC23CN(C(=O)[C@H]2CC2(F)F)C3)no1)n1ccc(C2CCCC2)n1 (some centres unmarked) [I-129]
**Result** < 4.00

**Query** Report measured pIC50 on CDK2/Cyclin E1 (Homo sapiens, UniProt P24941); entry: O=C(c1cncs1)N1CC(c2nnc(Cc3ccc(Cl)c(Cl)c3)o2)C2(C1)CN(c1nccc(C(F)(F)F)n1)C2 (centres unmarked) [I-99]
**Result** < 5.00

**Query** Report measured pIC50 on CDK2/Cyclin E1 (Homo sapiens, UniProt P24941); entry: CC1(C)C[C@@H]1C(=O)N1CC2(CN(C(=O)c3cncs3)CC2c2cn(Cc3ccc(Cl)c(Cl)c3)nn2)C1 (some centres unmarked) [I-51]
**Result** < 5.00

**Query** Report measured pIC50 on CDK2/Cyclin E1 (Homo sapiens, UniProt P24941); entry: O=C(c1cncs1)N1CC(c2nnc(Cc3cccc(C4CCOCC4)n3)o2)C2(C1)CN(c1ncco1)C2 (centres unmarked) [I-80]
**Result** < 5.00

**Query** Report measured pIC50 on CDK2/Cyclin E1 (Homo sapiens, UniProt P24941); entry: CC(c1nc(C2CN(C(=O)c3cnc(O)cn3)CC23CN(C(=O)[C@H]2CC2(F)F)C3)no1)n1ccc(C2CCCC2)n1 (some centres unmarked) [I-134]
**Result** 6.00 to 7.00

**Query** Report measured pIC50 on CDK2/Cyclin E1 (Homo sapiens, UniProt P24941); entry: CC1(C)C[C@@H]1C(=O)N1CC2(CN(C(=O)c3cnn(Cc4ccccc4)c3)C[C@@H]2c2nnc(Cc3ccc(Cl)c(Cl)c3)o2)C1 [I-16]
**Result** 5.00 to 6.00

**Query** Report measured pIC50 on CDK2/Cyclin E1 (Homo sapiens, UniProt P24941); entry: CC1(C)C[C@@H]1C(=O)N1CC2(CN(C(=O)c3cnn(Cc4ccccc4)c3)C[C@H]2c2nnc(Cc3ccc(Cl)c(Cl)c3)o2)C1 [I-15]
**Result** 7.00 to 8.00

**Query** Report measured pIC50 on CDK2/Cyclin E1 (Homo sapiens, UniProt P24941); entry: Cc1nc(C)c(C(=O)N2CC(c3nnc(Cc4cccc(C5CCOCC5)n4)o3)C3(C2)CN(C(=O)[C@H]2CC2(C)C)C3)s1 (some centres unmarked) [I-66]
**Result** 6.00 to 7.00

**Query** Report measured pIC50 on CDK2/Cyclin E1 (Homo sapiens, UniProt P24941); entry: Cc1cc(C)n(C(C)c2nc(C3CN(C(=O)c4cncs4)CC34CN(C(=O)[C@H]3CC3(C)C)C4)no2)n1 (some centres unmarked) [I-9]
**Result** 5.00 to 6.00

**Query** Report measured pIC50 on CDK2/Cyclin E1 (Homo sapiens, UniProt P24941); entry: CC1(C)C[C@@H]1C(=O)N1CC2(CN(C(=O)c3cncs3)CC2c2cn(Cc3ccc(C4CC4)cc3)nn2)C1 (some centres unmarked) [I-193]
**Result** 5.00 to 6.00
